Hello, the source for this data is ChEMBL document CHEMBL5291721, in case you need it.

Readings of AC50 for the listed compounds
- EXPERIMENTAL_SYSTEM: 5-hydroxytryptamine receptor 2A (Homo sapiens); further: assay procedure not described here
- Sequence (P28223 whole entry): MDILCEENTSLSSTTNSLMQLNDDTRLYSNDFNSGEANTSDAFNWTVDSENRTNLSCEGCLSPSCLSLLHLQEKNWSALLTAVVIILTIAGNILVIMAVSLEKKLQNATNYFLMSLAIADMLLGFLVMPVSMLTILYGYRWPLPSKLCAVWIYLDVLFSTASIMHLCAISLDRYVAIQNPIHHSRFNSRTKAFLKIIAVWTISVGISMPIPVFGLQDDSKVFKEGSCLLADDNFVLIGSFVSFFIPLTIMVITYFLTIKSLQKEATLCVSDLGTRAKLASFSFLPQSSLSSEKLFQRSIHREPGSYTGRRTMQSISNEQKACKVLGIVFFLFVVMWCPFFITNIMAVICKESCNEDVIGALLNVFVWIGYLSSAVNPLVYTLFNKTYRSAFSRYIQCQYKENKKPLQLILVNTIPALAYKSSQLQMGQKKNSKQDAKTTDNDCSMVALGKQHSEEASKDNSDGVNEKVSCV
- Format: functional, cell-based

{"COMPOUND": "O=C(O)CCCCCCNC1c2ccccc2CCc2ccccc21", "EXPERIMENTAL_SYSTEM": "5-hydroxytryptamine receptor 2A (Homo sapiens)", "AC50": "> 30 µM"}
{"COMPOUND": "Nc1nc(/C(=C/CC(=O)O)C(=O)N[C@@H]2C(=O)N3C(C(=O)O)=CCS[C@H]23)cs1", "EXPERIMENTAL_SYSTEM": "5-hydroxytryptamine receptor 2A (Homo sapiens)", "AC50": "> 30 µM"}
{"COMPOUND": "CN1CCN(C2=Nc3ccccc3Sc3ccc(Cl)cc32)CC1", "EXPERIMENTAL_SYSTEM": "5-hydroxytryptamine receptor 2A (Homo sapiens)", "AC50": "1 µM"}
{"COMPOUND": "CC[C@@H]1C(=O)OC[C@@H]1Cc1cncn1C", "EXPERIMENTAL_SYSTEM": "5-hydroxytryptamine receptor 2A (Homo sapiens)", "AC50": "> 30 µM"}
{"COMPOUND": "Cc1c(C(=O)NN2CCCCC2)nn(-c2ccc(Cl)cc2Cl)c1-c1ccc(Cl)cc1", "EXPERIMENTAL_SYSTEM": "5-hydroxytryptamine receptor 2A (Homo sapiens)", "AC50": "3.7 µM"}
{"COMPOUND": "COC1=C(OC)C(=O)C(C/C=C(\\C)CC/C=C(\\C)CC/C=C(\\C)CC/C=C(\\C)CC/C=C(\\C)CC/C=C(\\C)CC/C=C(\\C)CC/C=C(\\C)CC/C=C(\\C)CCC=C(C)C)=C(C)C1=O", "EXPERIMENTAL_SYSTEM": "5-hydroxytryptamine receptor 2A (Homo sapiens)", "AC50": "> 30 µM"}
{"COMPOUND": "COCCCN1CCC(NC(=O)c2cc(Cl)c(N)c3c2OCC3)CC1 [PRUCALOPRIDE]", "EXPERIMENTAL_SYSTEM": "5-hydroxytryptamine receptor 2A (Homo sapiens)", "AC50": "> 30 µM"}
{"COMPOUND": "CCC(C(=O)O)c1ccc(N2Cc3ccccc3C2=O)cc1 (stereo unspecified)", "EXPERIMENTAL_SYSTEM": "5-hydroxytryptamine receptor 2A (Homo sapiens)", "AC50": "> 30 µM"}
{"COMPOUND": "COc1ccc(CC(C)(C)NC[C@H](O)c2cc(O)cc3c2OCC(=O)N3)cc1", "EXPERIMENTAL_SYSTEM": "5-hydroxytryptamine receptor 2A (Homo sapiens)", "AC50": "12.8 µM"}
{"COMPOUND": "CC(=O)NCCCS(=O)(=O)O [ACAMPROSATE]", "EXPERIMENTAL_SYSTEM": "5-hydroxytryptamine receptor 2A (Homo sapiens)", "AC50": "> 30 µM"}
{"COMPOUND": "Cc1cccc(C(C)c2cnc[nH]2)c1C (stereo unspecified)", "EXPERIMENTAL_SYSTEM": "5-hydroxytryptamine receptor 2A (Homo sapiens)", "AC50": "> 30 µM"}
{"COMPOUND": "O=C(O)[C@H](CC(=O)N1C[C@H]2CCCC[C@H]2C1)Cc1ccccc1 [MITIGLINIDE]", "EXPERIMENTAL_SYSTEM": "5-hydroxytryptamine receptor 2A (Homo sapiens)", "AC50": "> 10 µM"}
{"COMPOUND": "COc1ccccc1N1CCN(CCCNc2cc(=O)n(C)c(=O)n2C)CC1", "EXPERIMENTAL_SYSTEM": "5-hydroxytryptamine receptor 2A (Homo sapiens)", "AC50": "> 30 µM"}
{"COMPOUND": "O=C(O)CCCCCCCC(=O)O", "EXPERIMENTAL_SYSTEM": "5-hydroxytryptamine receptor 2A (Homo sapiens)", "AC50": "> 10 µM"}
{"COMPOUND": "C=CCc1ccccc1OCC(O)CNC(C)C (stereo unspecified)", "EXPERIMENTAL_SYSTEM": "5-hydroxytryptamine receptor 2A (Homo sapiens)", "AC50": "> 30 µM"}
{"COMPOUND": "CN(C)CC/C=C1\\c2ccccc2CSc2ccccc21 [DOTHIEPIN]", "EXPERIMENTAL_SYSTEM": "5-hydroxytryptamine receptor 2A (Homo sapiens)", "AC50": "4.8 µM"}
{"COMPOUND": "COC(=O)[C@H]1[C@H]2C[C@@H]3c4[nH]c5cc(OC)ccc5c4CCN3C[C@H]2C[C@@H](OC(=O)/C=C/c2cc(OC)c(OC)c(OC)c2)[C@@H]1OC", "EXPERIMENTAL_SYSTEM": "5-hydroxytryptamine receptor 2A (Homo sapiens)", "AC50": "> 10 µM"}
{"COMPOUND": "CC(C(=O)O)c1ccc(N2Cc3ccccc3C2=O)cc1 (stereo unspecified)", "EXPERIMENTAL_SYSTEM": "5-hydroxytryptamine receptor 2A (Homo sapiens)", "AC50": "> 30 µM"}
{"COMPOUND": "CC1(C)NC(=O)N(c2ccc([N+](=O)[O-])c(C(F)(F)F)c2)C1=O [NILUTAMIDE]", "EXPERIMENTAL_SYSTEM": "5-hydroxytryptamine receptor 2A (Homo sapiens)", "AC50": "> 30 µM"}
{"COMPOUND": "C[C@]1(O)CC[C@H]2[C@@H]3CCC4=CC(=O)CC[C@]4(C)[C@@]3(F)[C@@H](O)C[C@@]21C", "EXPERIMENTAL_SYSTEM": "5-hydroxytryptamine receptor 2A (Homo sapiens)", "AC50": "> 10 µM"}
{"COMPOUND": "CC(C)OC(=O)CCC/C=C\\C[C@@H]1[C@@H](CC[C@@H](O)CCc2ccccc2)[C@H](O)C[C@@H]1O", "EXPERIMENTAL_SYSTEM": "5-hydroxytryptamine receptor 2A (Homo sapiens)", "AC50": "> 30 µM"}
